# test-protocol: PK drug-drug interaction between SOF and Compound I
# Type: in vivo, human
# condition-details: human, plasma, oral; Compound I 150 mg multiple doses alone, GLSM; read-out: Cmax

- structure: "COC[C@H]1C[C@@H](c2ncc(-c3ccc4c(c3)COc3cc5c(ccc6nc([C@@H]7CC[C@H](C)N7C(=O)[C@@H](NC(=O)OC)C(C)C)[nH]c65)cc3-4)[nH]2)N(C(=O)[C@H](NC(=O)OC)c2ccccc2)C1"
  Cmax: "932 ng/mL"

* * *

# test-protocol: PK drug-drug interaction between SOF and Compound I
# Format: in vivo, human
# condition-details: human, in vivo; SOF 400 mg single dose alone, GLSM; read-out: Cmax
observation-type: Cmax (ng/mL)

- molecule: "CC(C)OC(=O)[C@H](C)N[P@](=O)(OC[C@H]1O[C@@H](n2ccc(=O)[nH]c2=O)[C@](C)(F)[C@@H]1O)Oc1ccccc1 [sofosbuvir, reference compound]"
  observation-type: "Cmax"
  numeric-result: 880

* * *

# test-protocol: PK drug-drug interaction between SOF and Compound I
# Format: in vivo, human
# condition-details: human, in vivo; SOF 400 mg + Compound I 150 mg, GLSM; read-out: Cmax

- molecule: "CC(C)OC(=O)[C@H](C)N[P@](=O)(OC[C@H]1O[C@@H](n2ccc(=O)[nH]c2=O)[C@](C)(F)[C@@H]1O)Oc1ccccc1 [sofosbuvir, reference compound]"
  Cmax, ng/mL: 1590

* * *

# test-protocol: PK drug-drug interaction between SOF and Compound I
# Format: in vivo, human
# condition-details: human, plasma, oral; SOF 400 mg + Compound I 150 mg, GLSM; read-out: Cmax

- compound: "COC[C@H]1C[C@@H](c2ncc(-c3ccc4c(c3)COc3cc5c(ccc6nc([C@@H]7CC[C@H](C)N7C(=O)[C@@H](NC(=O)OC)C(C)C)[nH]c65)cc3-4)[nH]2)N(C(=O)[C@H](NC(=O)OC)c2ccccc2)C1 [Compound I]"
  Cmax / ng/mL: 988

* * *

# test-protocol: PK drug-drug interaction between SOF and Compound I
# Assay type: in vivo, human
# condition-details: human, in vivo; SOF 400 mg single dose alone, GLSM

- compound: "CC(C)OC(=O)[C@H](C)N[P@](=O)(OC[C@H]1O[C@@H](n2ccc(=O)[nH]c2=O)[C@](C)(F)[C@@H]1O)Oc1ccccc1 [sofosbuvir, reference compound]"
  result-unit: "ng·h/mL"
  AUC(0-t): 1150

Value source: patent US11707479B2
